Tested on: RAW264.7
Assay: Antiinflammatory activity in mouse RAW264.7 cells assessed as inhibition of LPS-induced NO production at 30 uM incubated for 10 mins prior to LPS-challenge measured after 18 hrs by Griess method relative to control
Format: functional
Field: inhibition at 30 µM. Provide a value for each of the compounds that follow.
Provide the reading as a plain figure in %.

Consider CCCc1cc(=O)oc2c3c(c(C(=O)C(C)CC)c(O)c12)OC(C)(C)C=C3 (stereo not drawn) . Its measured inhibition at 30 µM is 13.3

Consider CCCC(=O)c1c(O)c(C/C=C(\C)CCC=C(C)C)c(O)c2c([C@H](CC)OC(C)=O)cc(=O)oc12 [MAMMEASIN A] . Its measured inhibition at 30 µM is 92

Consider CC[C@H](O)c1cc(=O)oc2c(C(=O)CC(C)C)c(O)c(C/C=C(\C)CCC=C(C)C)c(O)c12 [SURANGIN D] . Its measured inhibition at 30 µM is 74

Consider CCCC(=O)c1c(O)c2c(c3c([C@@H](O)CC)cc(=O)oc13)OC(C)(C)C=C2 [DEACETYLMAMMEA E/BC CYCLO D] . Its measured inhibition at 30 µM is 62.3

Consider CCC(C)C(=O)c1c(O)c(CC=C(C)C)c(O)c2c([C@H](CC)OC(C)=O)cc(=O)oc12 (stereo partly drawn) . Its measured inhibition at 30 µM is 89.1

Consider CCCC(=O)c1c(O)c(CC=C(C)C)c2oc(=O)cc([C@@H](O)CC)c2c1O [KAYEASSAMIN E] . Its measured inhibition at 30 µM is 63.8

Consider CC(C)=CCc1c(O)c(C(=O)C(C)C)c(O)c2c(-c3ccccc3)cc(=O)oc12 [MESUOL] . Its measured inhibition at 30 µM is 103

Consider CCCC(=O)c1c(O)c(C/C=C(\C)CCC=C(C)C)c(O)c2c([C@@H](O)CC)cc(=O)oc12 [KAYEASSAMIN A] . Its measured inhibition at 30 µM is 56.6

* * *

Test: Cytotoxicity against mouse RAW264.7 cells assessed as cell viability at 3 uM after 18 hrs by MTT assay
Format: cell-based
Conditions: read-out: Activity
I'd appreciate it if you marked entries Satisfied when viability at 18 h, 3 µM is lower than 60% and Not satisfied when it is not.

Asked: For "CC(C)=CCc1c(O)c(C(=O)C(C)C)c(O)c2c(-c3ccccc3)cc(=O)oc12" , is the recorded viability at 18 h, 3 µM below the cut-off of 60%?
Given back: Satisfied

Asked: For CCC(C)C(=O)c1c(O)c(CC=C(C)C)c(O)c2c([C@H](CC)OC(C)=O)cc(=O)oc12 (stereo not given in full) , is the recorded viability at 18 h, 3 µM below the cut-off of 60%?
Given back: Satisfied

Asked: For CCC(C)C(=O)c1c(O)c(C/C=C(\C)CCC=C(C)C)c(O)c2c([C@H](CC)OC(C)=O)cc(=O)oc12 (stereo not given in full) , is the recorded viability at 18 h, 3 µM below the cut-off of 60%?
Given back: Not satisfied

Asked: For "CCCC(=O)c1c(O)c(C/C=C(\C)CCC=C(C)C)c(O)c2c([C@H](CC)OC(C)=O)cc(=O)oc12" , is the recorded viability at 18 h, 3 µM below the cut-off of 60%?
Given back: Satisfied
